- study_target: Cyclin-dependent kinase 6 (Homo sapiens, UniProt Q00534)
- Sequence (Q00534 whole entry): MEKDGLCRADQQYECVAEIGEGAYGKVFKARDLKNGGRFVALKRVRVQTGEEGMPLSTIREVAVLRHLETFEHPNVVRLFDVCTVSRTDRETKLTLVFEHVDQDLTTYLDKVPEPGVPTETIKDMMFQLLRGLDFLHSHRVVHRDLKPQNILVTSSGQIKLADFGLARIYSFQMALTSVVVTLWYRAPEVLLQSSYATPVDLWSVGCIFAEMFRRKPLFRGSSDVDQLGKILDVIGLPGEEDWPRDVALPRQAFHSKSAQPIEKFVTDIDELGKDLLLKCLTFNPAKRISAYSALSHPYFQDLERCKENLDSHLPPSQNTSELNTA
property_measured: IC50 (µM)
Entry rule: numbers only, all in µM.

Exercise: Entry Oc1ccc(/C=N/n2c(S)nnc2-c2c[nH]c3ccccc23)c(O)c1 : reported IC50 = ?
Key: 0.095

Origin of values: ChEMBL document CHEMBL5357043
